Sourced from paper PMC6461108

Molecular target: p53/hDM2 interaction (Homo sapiens, UniProt Q00987)
Experiment: Fluorescence anisotropy competition assay against p53/hDM2
Conditions: FITC-p53 15-31 tracer, 50 mM phosphate pH 7.5, 200 mM NaCl, 0.02 mg/mL BSA
observable: pIC50
As a rule, pIC50 stands for the negative log10 of the concentration, concentration in M.

Exercise: Entry `CC(C)Oc1cc(NC(=O)[C@H](Cc2ccccc2)NC(=O)c2ccc(N)c(OCc3ccc4ccccc4c3)c2)ccc1C(=O)NCC(=O)O` needs its pIC50 filled in; supply it.
Solution: 5.09

---

Molecular target: S-protein (Bos taurus, UniProt P61823)
Construct: S-protein22-124; host or cells: none: purchased RNase A digested with subtilisin, S-protein purified by RP-HPLC
Experiment: Isothermal titration calorimetry with S-protein
Assay type: binding, bovine
observable: pKd
As a rule, pKd stands for the negative log10 of the concentration, concentration in M.

Exercise: Entry Ac-KETAAAKFERQHMDS-NH2 [S-peptide, reference compound] needs its pKd filled in; supply it.
Solution: 6.89

---

Target: S-protein (Bos taurus, UniProt P61823)
Sequence (P61823 48-150): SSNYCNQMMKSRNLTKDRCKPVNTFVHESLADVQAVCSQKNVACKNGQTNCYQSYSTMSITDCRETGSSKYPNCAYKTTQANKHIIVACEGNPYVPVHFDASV
observable: pKd
As a rule, pKd stands for the negative log10 of the concentration, concentration in M.

Exercise: Entry `CC(C)Oc1cc(NC(=O)[C@H](Cc2ccccc2)NC(=O)c2ccc(N)c(OCc3ccc(Cl)cc3)c2)ccc1C(=O)NCC(=O)O` needs its pKd filled in; supply it.
Solution: 5.73
